- experimental target: human CRTH2 (Homo sapiens, UniProt Q9Y5Y4)
- Sequence (Q9Y5Y4 whole entry): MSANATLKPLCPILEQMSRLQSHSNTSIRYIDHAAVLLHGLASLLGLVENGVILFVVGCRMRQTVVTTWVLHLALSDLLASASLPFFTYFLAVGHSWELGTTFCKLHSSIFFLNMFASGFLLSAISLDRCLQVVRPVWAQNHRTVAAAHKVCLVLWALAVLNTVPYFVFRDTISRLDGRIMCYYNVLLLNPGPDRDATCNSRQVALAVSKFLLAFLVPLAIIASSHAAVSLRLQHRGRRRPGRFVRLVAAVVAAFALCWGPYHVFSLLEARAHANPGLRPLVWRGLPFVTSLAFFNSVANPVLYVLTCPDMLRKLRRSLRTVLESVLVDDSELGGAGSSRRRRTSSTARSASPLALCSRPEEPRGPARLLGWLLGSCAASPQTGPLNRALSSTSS
- procedure summary: Human CRTH2 Receptor Binding Assay (whole cell, [3H]ramatroban competition)
- recorded conditions: CHO-K1 cells stably expressing human CRTH2 and G-alpha16; 20 nM [3H]ramatroban; 1 hour, room temperature
- Method: A whole cell receptor binding assay using [^3H]ramatroban as the competing radioactive ligand was employed to evaluate the compound binding activity to human CRTH2. […] The binding reactions (0.2 mL) were performed in 96-well plates at room temperature in PBS containing 1.5×10^5 cells, 10 mM MgCl2, 0.06% BSA, 20 nM [^3H]ramatroban, and test compound at various concentrations. […] Specific binding data were obtained by subtracting the radioactivity of non-specific binding from each binding data. […]
pIC50: −log10 of the molar value.
Using pIC50 as the sorting value, the categories are category 1 = under 7, category 2 = from 7 up to 8, category 3 = 8 and over

Classify this compound: `CN([C@@H]1CCCc2c1cnn2CC(=O)O)S(=O)(=O)c1cc(N2CCCC2)cc(C(F)(F)F)c1` category 2

Looking at `CN([C@@H]1CCCc2c1cnn2CC(=O)O)S(=O)(=O)c1cnc(OC2CCOCC2)c(Br)c1` , which class would you pick? category 2

Textbook exercise: identify the category of the compound given here, CS(=O)(=O)Nc1cccc(S(=O)(=O)NC2CCCc3c2cnn3CC(=O)O)c1 (stereo not drawn) , according to its measured value. category 2

Hi, small favor: classify `CN([C@@H]1CCCc2c1cnn2CC(=O)O)S(=O)(=O)c1ccc(Br)cc1F` by its pIC50 when you get a moment. category 1

Which pIC50 category applies to `CC(C)S(=O)(=O)c1cc(C(F)(F)F)cc(S(=O)(=O)N(C)[C@@H]2CCCc3c2cnn3CC(=O)O)c1` here? category 3

Into which bin does this compound go? `CN([C@@H]1CCCc2c1cnn2CC(=O)O)S(=O)(=O)c1cc(C2CCCC2)cc(C(F)(F)F)c1` category 2

Input `CN([C@@H]1CCCc2c1cnn2CC(=O)O)S(=O)(=O)c1cc(Br)cc(Br)c1` ; output its category category 2

Determine which band this compound sits in: `CCS(=O)(=O)c1cc(C(F)(F)F)cc(S(=O)(=O)N(C)[C@@H]2CCCc3c2cnn3CC(=O)O)c1` category 3

Hey, which category is CS(=O)(=O)c1cccc(S(=O)(=O)NC2CCCc3c2cnn3CC(=O)O)c1 (stereo not drawn) [Example 1-14a] in, do you know? category 2

Could you tell me which band O=C(O)Cn1ncc2c1CCCC2NS(=O)(=O)c1cc(Br)cc(C(F)(F)F)c1 (stereo not drawn) belongs to? category 2

Which of the defined bands does the recorded pIC50 of `CN([C@@H]1CCCc2c1cnn2CC(=O)O)S(=O)(=O)c1cc(C(C)(C)C)cc(C(C)(C)C)c1` sit within? category 1

Which category fits this record: `CN([C@@H]1CCCc2c1cnn2C(C)(C)C(=O)O)S(=O)(=O)c1cc(C(F)(F)F)cc(C(F)(F)F)c1` category 1

Textbook exercise: identify the category of the compound given here, O=C(O)Cn1ncc2c1CCCC2NS(=O)(=O)c1cc(Cl)cc(Cl)c1 (stereo not drawn) , according to its measured value. category 1

Class? Entry: CCOc1ncc(S(=O)(=O)NC2CCCc3c2cnn3CC(=O)O)cc1Br (stereo not drawn) category 1

// bin(item) where item = O=C(O)Cn1ncc2c1CCCC2NS(=O)(=O)c1cc(C2CC2)cc(C(F)(F)F)c1 (stereo not drawn) category 2

Categorize the following entry: `CN([C@@H]1CCCc2c1cnn2CC(=O)O)S(=O)(=O)c1cc(C(F)(F)F)cc(S(=O)(=O)C(C)(C)C)c1` category 3

Looking at `CC(C)S(=O)(=O)c1cc(C(F)(F)F)cc(S(=O)(=O)N(C)[C@@H]2CCCc3c2cnn3CCC(=O)O)c1` , which class would you pick? category 3

====

- experimental target: human CRTH2 (Homo sapiens)
- procedure summary: Human CRTH2 Receptor Binding Assay (whole cell, [3H]ramatroban competition)
- recorded conditions: CHO-K1 cells stably expressing human CRTH2 and G-alpha16; 20 nM [3H]ramatroban; 1 hour, room temperature
metric name: pIC50
Please note pIC50 is a logarithmic value: minus log10 of concentration in mol/L. Answer with that number alone.

Note to self: pIC50 recorded for `CN(C)c1cc(C(F)(F)F)cc(S(=O)(=O)N(C)[C@@H]2CCCc3c2cnn3CC(=O)O)c1` was 7.21

Form field pIC50, entry COc1ccc(S(=O)(=O)NC2CCCc3c2cnn3CC(=O)O)cc1C(F)(F)F (centres unmarked) [Example 1-15a] : 6.58

What the record says about `CN([C@@H]1CCCc2c1cnn2CC(=O)O)S(=O)(=O)c1cc(C(F)(F)F)cc([Si](C)(C)C)c1` : pIC50 is 7.25

So for Cc1cc(C(F)(F)F)cc(S(=O)(=O)NC2CCCc3c2cnn3CC(=O)O)c1 (centres unmarked) , the logged pIC50 turned out to be 6.85

Recorded result, `CCS(=O)(=O)c1cc(C(F)(F)F)cc(S(=O)(=O)N[C@@H]2CCCc3c2cnn3CC(=O)O)c1` , pIC50: 8.59

Measured pIC50, `CN([C@@H]1CCCc2c1cnn2CC(=O)O)S(=O)(=O)c1ccc(Br)cc1Cl` : 7.01

In plain terms, O=C(O)Cn1ncc2c1CCCC2NS(=O)(=O)c1ccc(Cl)cc1Cl (centres unmarked) has a documented pIC50 of 6.63

pIC50 reported for this compound C=C(C)c1cc(C(F)(F)F)cc(S(=O)(=O)NC2CCCc3c2cnn3CC(=O)O)c1 (centres unmarked) : 7.39

pIC50 reading for O=C(O)CCn1ncc2c1CCC[C@H]2NS(=O)(=O)c1cc(C(F)(F)F)cc(C(F)(F)F)c1 [Example 1-18a] : 6.58

Query COc1cc(C(F)(F)F)cc(S(=O)(=O)N[C@@H]2CCCc3c2cnn3CC(=O)O)c1 [Example 1-12a] yields pIC50 of 7.27

Summary for this compound, `CN([C@@H]1CCCc2c1cnn2CC(=O)O)S(=O)(=O)c1cc(C(C)(F)F)cc(C(F)(F)F)c1` : pIC50 is 8.46

GET /value?item= C#Cc1cc(C(F)(F)F)cc(S(=O)(=O)NC2CCCc3c2cnn3CC(=O)O)c1 (centres unmarked) &field=pIC50 returns 7.16

compound `CN([C@@H]1CCCc2c1cnn2CC(=O)O)S(=O)(=O)c1cnc(OC2CCC2)c(Br)c1` , pIC50 observed: 7.41

pIC50 in this record for O=C(O)Cn1ncc2c1CCCC2NS(=O)(=O)c1cc(C(F)(F)F)ccc1C(F)(F)F (centres unmarked) [Example 1-13a] : 6.69

The reported pIC50 of the compound CC[S+]([O-])c1cc(C(F)(F)F)cc(S(=O)(=O)N(C)[C@@H]2CCCc3c2cnn3CC(=O)O)c1 (some centres unmarked) was 8.48

The compound identified as `CC(C)Oc1ncc(S(=O)(=O)N(C)[C@@H]2CCCc3c2cnn3CC(=O)O)cc1Br` registered its pIC50 at 7.43

// pIC50 lookup, compound = O=C(O)Cn1ncc2c1CCCC2NS(=O)(=O)c1ccc(Br)c(F)c1 (centres unmarked) , result: 6.37

Summary for this compound, `CC(=O)c1cc(C(F)(F)F)cc(S(=O)(=O)N(C)[C@@H]2CCCc3c2cnn3CC(=O)O)c1` : pIC50 is 8.15

The measured pIC50 associated with O=C(O)Cn1ncc2c1CCCC2NS(=O)(=O)c1cnc(Cl)c(Br)c1 (centres unmarked) [Example 1-11a] reads 6.54

The recorded pIC50 for entry `CN([C@@H]1CCCc2c1cnn2CCC(=O)O)S(=O)(=O)c1cc(C(F)(F)F)cc(S(=O)(=O)C(C)(C)C)c1` equals 7.90

====

- experimental target: human CRTH2 (Homo sapiens, UniProt Q9Y5Y4)
- procedure summary: Human CRTH2 Receptor Binding Assay (whole cell, [3H]ramatroban competition)
- recorded conditions: CHO-K1 cells stably expressing human CRTH2 and G-alpha16; 20 nM [3H]ramatroban; 1 hour, room temperature
Would you kindly list IC50 for each of these compounds?
Report as: number unit

Measured IC50 for this entry `CS(=O)(=O)c1cc(C(F)(F)F)cc(S(=O)(=O)N[C@@H]2CCCc3c2cnn3CC(=O)O)c1` on human CRTH2 (Homo sapiens, UniProt Q9Y5Y4): 3.1 nM

For the compound `CN([C@@H]1CCCc2c1cnn2CC(=O)O)S(=O)(=O)c1cc(Br)cc(C(F)(F)F)c1` , the measured IC50 on human CRTH2 (Homo sapiens, UniProt Q9Y5Y4) was 11.2 nM

Bench note, human CRTH2 (Homo sapiens, UniProt Q9Y5Y4): `CC(C)c1cc(C(F)(F)F)cc(S(=O)(=O)N[C@@H]2CCCc3c2cnn3CC(=O)O)c1` , IC50 reads 22 nM

Item: `CN([C@@H]1CCCc2c1cnn2CCC(=O)O)S(=O)(=O)c1cc(C(F)(F)F)cc(S(=O)(=O)C2CCCC2)c1` | System: human CRTH2 (Homo sapiens, UniProt Q9Y5Y4) | IC50: 3.3 nM

Summary line: `CN([C@@H]1CCCc2c1cnn2CC(=O)O)S(=O)(=O)c1cc(C(F)(F)F)cc(S(C)(=O)=O)c1` , human CRTH2 (Homo sapiens, UniProt Q9Y5Y4), reported IC50 = 2.5 nM

Entry `CN([C@@H]1CCCc2c1cnn2CC(=O)O)S(=O)(=O)c1cc(C(F)(F)F)cc(S(=O)(=O)C2CCCC2)c1` , human CRTH2 (Homo sapiens, UniProt Q9Y5Y4) data, IC50 value: 2.9 nM

Entry `CN([C@@H]1CCCc2c1cnn2CCC(=O)O)S(=O)(=O)c1cc(C(F)(F)F)cc(C(F)(F)F)c1` : IC50 on human CRTH2 (Homo sapiens, UniProt Q9Y5Y4) = 43.4 nM
